Test system: Poliovirus 3
experimentSummary: Antiviral activity against Human poliovirus 3 infected in human HeLa cells assessed as protection against virus induced cytopathic effect after 2 days by MTT assay
Assay type: functional, cell-based
studyConditions: Enterovirus C, 48 h
property: pEC50
Scale: negative log10 of molar concentration, which is what pEC50 denotes.

Query string: # return recorded pEC50 for entry "CCOC(=O)c1cc2ccc(Oc3ccnc(C(=O)NC)c3)c(Cl)c2s1"
Result string: 4.23

Query string: # return recorded pEC50 for entry "CCOC(=O)c1sc2cc(OC)ccc2c1C"
Result string: 5.74

Query string: # return recorded pEC50 for entry "CCOC(=O)c1sc2cc(Oc3ccnc(C(=O)NC)c3)ccc2c1C#N"
Result string: 4.26

Query string: # return recorded pEC50 for entry "CCOC(=O)c1cc2ccc(OC)cc2s1"
Result string: 4.88

Query string: # return recorded pEC50 for entry "CNC(=O)c1cc(Oc2ccc3c(C)c(C(=O)OCC(C)C)sc3c2)ccn1"
Result string: 5.70

Query string: # return recorded pEC50 for entry "CCCOC(=O)c1sc2cc(Oc3ccnc(C(=O)NC)c3)ccc2c1C"
Result string: 6.15

Query string: # return recorded pEC50 for entry Cc1cc(CCCOc2c(C)cc(-c3noc(C(F)(F)F)n3)cc2C)on1 [PLECONARIL]
Result string: 5.85

----------
experimentSummary: Selectivity index, ratio of CC50 for human H1HeLa cells to EC50 for Human rhinovirus A21 infected in human H1HeLa cells
Format: toxicity, cell-based
studyConditions: read-out: Ratio CC50/EC50
Each entry falls in a class defined on selectivity ratio; the bands are lo = under 30, mid = from 30 up to 100, hi = 100 and over

Query string: Which category fits this record: CCC(C)OC(=O)c1ccc2ccc(Oc3ccnc(C(=O)NC)c3)cc2c1 (stereo not given)
Result string: mid

Query string: Which category fits this record: "CNC(=O)c1cc(Oc2ccc3c(C)c(C(=O)OC(C)C)n(C)c3c2)ccn1"
Result string: mid

Query string: Which category fits this record: "CCOC(=O)c1sc2cc(Oc3ccnc(C(=O)NC)c3)ccc2c1Cl"
Result string: lo

Query string: Which category fits this record: "CNC(=O)c1cc(Oc2ccc3c(C)c(C(=O)OC)sc3c2)ccn1"
Result string: mid

Query string: Which category fits this record: "CNC(=O)c1cc(Oc2ccc3c(C)c(C(=O)OC(C)C)[nH]c3c2)ccn1"
Result string: lo

Query string: Which category fits this record: "CCOC(=O)c1ccc2cc(Oc3ccnc(C(=O)NC)c3)ccc2c1"
Result string: hi

Query string: Which category fits this record: "CCOC(=O)c1sc2cc(Oc3ccnc(C(=O)NC)c3)ccc2c1CC"
Result string: hi

Query string: Which category fits this record: "CCOC(=O)c1sc2cc(Oc3ccnc(C(=O)NC)c3)ccc2c1C"
Result string: hi

Query string: Which category fits this record: "CCOC(=O)c1sc2cc(Oc3ccccc3)ccc2c1C"
Result string: hi

Query string: Which category fits this record: "CCOC(=O)c1sc2cc(Oc3cccc(C(=O)NC)c3)ccc2c1C"
Result string: mid

Query string: Which category fits this record: "CNC(=O)c1cc(Oc2ccc3c(C)c(C(=O)OCC(C)C)sc3c2)ccn1"
Result string: lo

Query string: Which category fits this record: "CNC(=O)c1cc(Oc2ccc3ccc(C(=O)OC(C)C)cc3c2)ccn1"
Result string: lo

Query string: Which category fits this record: "CNC(=O)c1cc(Oc2ccc3cc(C(=O)OC(C)C)n(C)c3c2)ccn1"
Result string: hi

Query string: Which category fits this record: "CNC(=O)c1ccc(Oc2ccc3c(C)c(C(=O)OC(C)C)sc3c2)cn1"
Result string: lo

Query string: Which category fits this record: "CCCOC(=O)c1sc2cc(Oc3ccnc(C(=O)NC)c3)ccc2c1C"
Result string: hi

----------
experimentSummary: Cytotoxicity against human H1HeLa cells assessed as decrease in cell viability after 3 days by MTT assay
Format: cell-based, H1-HeLa
Could you please report measured CC50 at 72 h for the items listed next?
Your answer is read as µM, so omit the unit and give the number.

Query string: # return recorded CC50 at 72 h for entry "CNC(=O)c1cc(Oc2ccc3c(C)c(C(=O)OC(C)C)sc3c2)ccn1"
Result string: 18.1

Query string: # return recorded CC50 at 72 h for entry "CCCOC(=O)c1sc2cc(Oc3ccnc(C(=O)NC)c3)ccc2c1C"
Result string: 37.4

Query string: # return recorded CC50 at 72 h for entry "CNC(=O)c1cc(Oc2ccc3c(C)c(C(=O)OC(C)C)[nH]c3c2)ccn1"
Result string: 14.6

Query string: # return recorded CC50 at 72 h for entry "CCOC(=O)c1sc2cc(Oc3ccnc(C(=O)NC)c3)ccc2c1C"
Result string: 50.9

----------
Could you please report measured selectivity ratio for the items listed next?
experimentSummary: Selectivity index, ratio of CC50 for human H1HeLa cells to EC50 for Human rhinovirus A71 infected in human H1HeLa cells
Format: toxicity, cell-based
studyConditions: read-out: Ratio CC50/EC50
Please respond with just the number, no unit label.

Query string: # return recorded selectivity ratio for entry "CCOC(=O)c1cc2ccc(O)cc2s1"
Result string: 5.9

Query string: # return recorded selectivity ratio for entry "CNC(=O)c1cc(Oc2ccc3c(C)c(C(=O)OC(C)C)[nH]c3c2)ccn1"
Result string: 7.7

Query string: # return recorded selectivity ratio for entry "CCOC(=O)c1sc2cc(Oc3ccnc(C(=O)NC)c3)ccc2c1Cl"
Result string: 17

Query string: # return recorded selectivity ratio for entry "CNC(=O)c1cc(Oc2ccc3c(C)c(C(=O)OC)sc3c2)ccn1"
Result string: 6.8

Query string: # return recorded selectivity ratio for entry "CNC(=O)c1ccc(Oc2ccc3c(C)c(C(=O)OC(C)C)sc3c2)cn1"
Result string: 4.5

Query string: # return recorded selectivity ratio for entry "CCOC(=O)c1sc2cc(Oc3cccc(C(=O)NC)c3)ccc2c1C"
Result string: 34

Query string: # return recorded selectivity ratio for entry "CCOC(=O)c1cc2ccc(OC)cc2s1"
Result string: 14

Query string: # return recorded selectivity ratio for entry "CNC(=O)c1cc(Oc2ccc3cc(C(=O)OC(C)C)sc3c2)ccn1"
Result string: 3500

----------
experimentSummary: Cytotoxicity aganist human HeLa cells assessed as decrease in cell viability after 2 days by MTT assay
Assay type: cell-based
property: CC50 at 48 h (µM)
Your answer is read as µM, so omit the unit and give the number.

Query string: # return recorded CC50 at 48 h for entry "CNC(=O)c1cc(Oc2ccc3c(C)c(C(=O)OCc4ccccc4)sc3c2)ccn1"
Result string: 18.1

Query string: # return recorded CC50 at 48 h for entry "CNC(=O)c1cc(Oc2ccc3ccc(C(=O)OC(C)C)cc3c2)ccn1"
Result string: 8.7

Query string: # return recorded CC50 at 48 h for entry "COc1ccc(OCc2ccc(COc3c(Cl)cccc3Cl)cc2)c(Cl)c1"
Result string: 16

Query string: # return recorded CC50 at 48 h for entry "CNC(=O)c1cc(Oc2ccc3c(C)c(C(=O)N(C)C)sc3c2)ccn1"
Result string: 44.4

Query string: # return recorded CC50 at 48 h for entry "CCOC(=O)c1sc2cc(Oc3cccc(C(=O)NC)c3)ccc2c1C"
Result string: 7.7

Query string: # return recorded CC50 at 48 h for entry "CCOC(=O)c1ccc2ccc(Oc3ccnc(C(=O)NC)c3)cc2c1"
Result string: 13.2

Query string: # return recorded CC50 at 48 h for entry "CCOC(=O)c1sc2cc(O)ccc2c1C"
Result string: 46.6

Query string: # return recorded CC50 at 48 h for entry "CNC(=O)c1cc(Oc2ccc3ccc(C(=O)OC)cc3c2)ccn1"
Result string: 33.8

Query string: # return recorded CC50 at 48 h for entry "CNC(=O)c1cc(Oc2ccc3c(C)c(C(=O)OCC(C)C)sc3c2)ccn1"
Result string: 28.2

Query string: # return recorded CC50 at 48 h for entry "CCOC(=O)c1sc2cc(Oc3ccccc3)ccc2c1C"
Result string: 47.6

Query string: # return recorded CC50 at 48 h for entry "CCOC(=O)c1sc2cc(Oc3ccnc(C(=O)NC)c3)ccc2c1N"
Result string: 0.45

Query string: # return recorded CC50 at 48 h for entry "CCOC(=O)c1sc2cc(Oc3ccnc(C(=O)NC)c3)ccc2c1Cl"
Result string: 45.6

Query string: # return recorded CC50 at 48 h for entry "CCOC(=O)c1ccc2cc(Oc3ccnc(C(=O)NC)c3)ccc2c1"
Result string: 34.1

Query string: # return recorded CC50 at 48 h for entry "CCOC(=O)c1cc2ccc(OC)cc2s1"
Result string: 44.4

Query string: # return recorded CC50 at 48 h for entry "Cc1cc(CCCOc2c(C)cc(-c3noc(C(F)(F)F)n3)cc2C)on1"
Result string: 25.9

Query string: # return recorded CC50 at 48 h for entry "CNC(=O)c1cc(Oc2ccc3c(C)c(C(=O)OC(C)C)n(C)c3c2)ccn1"
Result string: 8.5

Query string: # return recorded CC50 at 48 h for entry "CCOC(=O)c1cc2ccc(Oc3ccccc3)cc2s1"
Result string: 90.1

Query string: # return recorded CC50 at 48 h for entry "CNC(=O)c1cc(Oc2ccc3c(C)c(C(=O)OC(C)C)sc3c2)ccn1"
Result string: 9.6

Query string: # return recorded CC50 at 48 h for entry "CNC(=O)c1cc(Oc2ccc3cc(C(=O)OC(C)C)n(C)c3c2)ccn1"
Result string: 46.1

Query string: # return recorded CC50 at 48 h for entry "CNC(=O)c1ccc(Oc2ccc3c(C)c(C(=O)OC(C)C)sc3c2)cn1"
Result string: 12.9

Query string: # return recorded CC50 at 48 h for entry "CNC(=O)c1cc(Oc2ccc3cc(C(=O)OC)sc3c2)ccn1"
Result string: 68.3

Query string: # return recorded CC50 at 48 h for entry "CCOC(=O)c1cc2ccc(Oc3ccncc3)cc2s1"
Result string: 43.9

Query string: # return recorded CC50 at 48 h for entry "CCOC(=O)c1sc2cc(Oc3ccnc(C(=O)NC)c3)ccc2c1CC"
Result string: 16.7

Query string: # return recorded CC50 at 48 h for entry "CNC(=O)c1cc(Oc2ccc3c(C)c(C(=O)OC(C)C)[nH]c3c2)ccn1"
Result string: 8.4

Reference source for all entries: ChEMBL document CHEMBL4011621
